biological target: HLA-B*5301 (human); assay: competition vs 125I-labelled probe peptide, purified HLA, gel filtration
pIC50: −log10 of the molar value.
EXPERIMENTAL_ENDPOINT: pIC50

- BINDER: "FPLPAARPI (9-mer analog of the HER2/neu peptide starting at position 1155) [Her2/neu.1155.F1I9]"
  NUMERIC_RESULT: 6.55
- BINDER: "FPLDSTFYRSL (11-mer analog of the HER2/neu peptide starting at position 998) [Her2/neu.998.F1]"
  NUMERIC_RESULT: 5.92
- BINDER: "FPASPLDSTF (10-mer analog of the HER2/neu peptide starting at position 995) [Her2/neu.995.F1]"
  NUMERIC_RESULT: 8.00
- BINDER: "FPAARPAGI (9-mer analog of the HER2/neu peptide starting at position 1157) [Her2/neu.1157.F1I9]"
  NUMERIC_RESULT: 5.37
- BINDER: "FPSETDGYI [Her2/neu.1120.F1I9]"
  NUMERIC_RESULT: 7.43
- BINDER: "FPTHDPSPI [Her2/neu.1101.F1I9]"
  NUMERIC_RESULT: 6.56
- BINDER: "FPLAPSEGI (9-mer analog of the HER2/neu peptide starting at position 1073) [Her2/neu.1073.F1I9]"
  NUMERIC_RESULT: 6.62
- BINDER: "FPASPLDSTI (10-mer analog of the HER2/neu peptide starting at position 995) [Her2/neu.995.F1I10]"
  NUMERIC_RESULT: 7.52

Every entry's value here was drawn from patent US20040018971A1.
